The measurements presented in this section are drawn from ChEMBL document CHEMBL5107969.

- Target Desc: Cholinesterase (Equus caballus, UniProt P81908)
- Sequence (P81908 whole entry): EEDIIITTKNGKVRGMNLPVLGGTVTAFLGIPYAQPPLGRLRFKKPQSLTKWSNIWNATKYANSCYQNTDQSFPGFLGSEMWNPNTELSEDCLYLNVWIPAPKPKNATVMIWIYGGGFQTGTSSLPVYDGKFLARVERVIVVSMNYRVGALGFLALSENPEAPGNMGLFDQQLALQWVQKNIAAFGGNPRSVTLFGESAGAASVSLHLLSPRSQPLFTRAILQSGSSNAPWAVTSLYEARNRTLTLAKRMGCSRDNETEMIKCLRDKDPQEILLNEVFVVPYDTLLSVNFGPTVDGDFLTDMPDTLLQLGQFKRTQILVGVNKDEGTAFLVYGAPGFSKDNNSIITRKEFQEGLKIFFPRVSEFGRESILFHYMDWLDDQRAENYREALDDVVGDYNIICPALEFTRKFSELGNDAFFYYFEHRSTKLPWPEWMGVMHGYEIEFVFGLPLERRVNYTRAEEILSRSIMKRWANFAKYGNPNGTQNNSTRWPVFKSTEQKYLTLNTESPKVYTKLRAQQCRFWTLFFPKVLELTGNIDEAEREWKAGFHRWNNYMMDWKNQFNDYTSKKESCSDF
- Experimental Details: Inhibition of equine serum BChE incubated for 15 mins by Ellman's method
Property Label: pIC50
Would you please state pIC50, meaning minus log10 of the concentration in mol/L, as a bare number?

Value (pIC50, Cholinesterase (Equus caballus, UniProt P81908)) for record CCN(CCCCOc1ccc(/C=C/C(=O)N2CCc3ccccc3C2)cc1OC)Cc1ccccc1 = 8.05

---

- Experimental Details: Drug uptake in CD-1 mouse plasma at 10 mg/kg, po via gavage measured after 5 mins by LC-MS/MS analysis
- Assay type: ADME, organism-based
Property Label: concentration at 5 min (ng/mL)
Your answer is read as ng/mL, so omit the unit and give the number.

# concentration at 5 min (molecule: CN(C)c1ccc(O)c(CNc2cccc3ccc(CO)nc23)c1 ) is 5.91

---

- Experimental Details: Drug uptake in CD-1 mouse brain at 10 mg/kg, po via gavage measured after 5 mins by LC-MS/MS analysis
- Assay type: ADME, organism-based
- Applied Conditions: read-out: Ct
Property Label: concentration at 5 min (ng/mL)
Please respond with the number in ng/mL and leave the unit unwritten.

According to the records, this compound CN(C)c1ccc(O)c(CNc2cccc3ccc(CO)nc23)c1 displays concentration at 5 min of 14.3

---

- Target Desc: Amyloid-beta precursor protein (Homo sapiens, UniProt P05067)
- Sequence (P05067 whole entry): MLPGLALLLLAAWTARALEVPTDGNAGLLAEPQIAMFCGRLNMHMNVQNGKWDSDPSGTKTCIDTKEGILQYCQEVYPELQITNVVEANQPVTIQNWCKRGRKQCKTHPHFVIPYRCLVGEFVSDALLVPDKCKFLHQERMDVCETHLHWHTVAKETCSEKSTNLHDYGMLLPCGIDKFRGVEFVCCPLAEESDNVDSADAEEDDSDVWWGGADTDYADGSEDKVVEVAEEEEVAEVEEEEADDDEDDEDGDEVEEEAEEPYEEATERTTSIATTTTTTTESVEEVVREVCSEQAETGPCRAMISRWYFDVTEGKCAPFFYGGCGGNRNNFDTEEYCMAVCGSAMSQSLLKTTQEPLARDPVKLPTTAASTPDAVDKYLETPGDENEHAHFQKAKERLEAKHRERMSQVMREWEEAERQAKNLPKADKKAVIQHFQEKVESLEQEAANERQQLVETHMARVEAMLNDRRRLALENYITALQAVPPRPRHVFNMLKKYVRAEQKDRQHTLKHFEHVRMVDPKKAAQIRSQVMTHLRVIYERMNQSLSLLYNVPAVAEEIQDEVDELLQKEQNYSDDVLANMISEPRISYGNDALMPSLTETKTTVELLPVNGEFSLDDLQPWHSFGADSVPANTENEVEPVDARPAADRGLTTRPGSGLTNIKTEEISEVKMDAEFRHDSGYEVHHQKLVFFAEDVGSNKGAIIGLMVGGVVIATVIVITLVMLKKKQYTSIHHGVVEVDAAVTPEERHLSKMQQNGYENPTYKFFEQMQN
- Experimental Details: Inhibition of human AChE-induced amyloid beta (1 to 40) aggregation (unknown origin)
Property Label: IC50 (µM)
Give the value in µM but do not write µM after it.

The compound CCN(CCCCCCNC1=CC(=O)C(NCCCCCCN(CC)Cc2ccccc2OC)=CC1=O)Cc1ccccc1OC on Amyloid-beta precursor protein (Homo sapiens, UniProt P05067): IC50 was 28.3
